Target: ITK (Homo sapiens)
Sequence (Q08881 whole entry): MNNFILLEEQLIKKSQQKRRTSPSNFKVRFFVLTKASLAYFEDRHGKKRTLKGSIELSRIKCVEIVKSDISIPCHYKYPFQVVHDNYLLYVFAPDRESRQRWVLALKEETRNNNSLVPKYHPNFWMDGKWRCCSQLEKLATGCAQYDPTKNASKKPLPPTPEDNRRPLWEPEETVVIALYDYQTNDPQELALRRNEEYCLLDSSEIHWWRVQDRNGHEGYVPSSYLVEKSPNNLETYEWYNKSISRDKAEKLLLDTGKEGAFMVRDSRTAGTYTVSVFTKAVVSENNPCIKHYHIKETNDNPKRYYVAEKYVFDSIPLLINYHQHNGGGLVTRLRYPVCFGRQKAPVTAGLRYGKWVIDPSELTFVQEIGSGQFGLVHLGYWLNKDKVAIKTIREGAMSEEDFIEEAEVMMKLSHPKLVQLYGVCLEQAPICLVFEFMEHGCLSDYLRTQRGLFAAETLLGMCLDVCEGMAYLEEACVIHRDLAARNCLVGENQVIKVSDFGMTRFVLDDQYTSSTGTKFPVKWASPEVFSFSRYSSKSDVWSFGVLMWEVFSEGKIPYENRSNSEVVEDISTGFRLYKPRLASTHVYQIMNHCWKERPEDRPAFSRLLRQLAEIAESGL
Assay: ITK degradation HiBiT assay
Format: cell-based
Design: expressed in transfected cells; host or cells: Molt4 (ATCC CRL-1552), monoclonal clone 1C10, engineered to carry the HiBiT tag
Conditions: MOLT-4, C-terminal HiBiT-tagged Molt4 cells, 4 hrs
Quantity kind: Dmax (%)

Compound	Unit symbol	Dmax
CC1(C)CCc2c(-c3cc4ccc(C(=O)N5CCN(CC6CCN(c7ncc(C8CCC(=O)NC8=O)cc7F)CC6)CC5)cc4[nH]3)n[nH]c2C1 (centres unmarked) [Compound 183]	%	81
C[C@@]12Cc3[nH]nc(-c4cc5ccc(C(=O)N6CCN(CC7CCN(c8ccc(C9CCC(=O)NC9=O)cc8)CC7)CC6)cc5[nH]4)c3C[C@@H]1C2(F)F (some centres unmarked) [Compound 135]	%	85
CN(C(=O)CN1CC2(CCN(c3ccc4c(c3)C(=O)N(C3CCC(=O)NC3=O)C4=O)C2)C1)c1ccc2cc(-c3n[nH]c4c3C[C@@H]3C(F)(F)[C@]3(C)C4)[nH]c2c1 (some centres unmarked) [Compound 71]	%	70
CC1(C)CCc2c(-c3cc4ccc(C(=O)N5CCC(CN6CCCN(c7ccc(C8CCC(=O)NC8=O)cn7)CC6)CC5)cc4[nH]3)n[nH]c2C1 (centres unmarked) [Compound 191]	%	78
C[C@@]12Cc3[nH]nc(C(=O)Nc4cnn(C5CCN(CC6CCN(c7ccc([C@H]8CCC(=O)NC8=O)cc7F)CC6)CC5)c4)c3C[C@@H]1C2(F)F [Compound 118]	%	77

Taken from patent US20240279202A1.
